Target: T1, huZIP12-ECD-GST (human, UniProt Q504Y0 24-202)
T1 construct: also called hZIP12-ECD-GST; human ZIP12-ECD-GST; not shown: glutathione S-transferase (GST) tag
T1 sequence (Q504Y0 24-202): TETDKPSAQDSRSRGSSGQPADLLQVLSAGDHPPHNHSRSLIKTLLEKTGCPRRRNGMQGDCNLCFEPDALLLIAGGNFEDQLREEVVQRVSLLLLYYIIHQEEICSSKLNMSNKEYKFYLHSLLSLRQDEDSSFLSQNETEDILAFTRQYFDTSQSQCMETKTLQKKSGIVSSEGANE
Test: SPR single cycle kinetics (Biacore): mAb captured on protein A, huZIP12-ECD-GST injected at 3.12-800 nM
Procedure: Single Cycle Kinetics (SCK) involves first capturing the mAb onto the protein A sensor surface and then sequentially injecting a series of concentrations of huZIP12-ECD-GST over the surface starting at the lowest concentration and ending with the highest concentration. […] The SCK is repeated for each monoclonal antibody providing duplicate data and the kinetics of each interaction is evaluated by the Biacore software. […]

| binder | unit_tag | Kd |
| --- | --- | --- |
| H2_T56H_L1 (antibody, V domains shown, Fc null human IgG1 / human kappa) VH: QVQLVESGGGVVQPGRSLRLSCAASGFTFSDYGMHWVRQAPGKGLEWVAYISSGGHTIYYADTVKGRFTISRDNSKNTLYLQMNSLRAEDTAVYYCARWTNLYAMDYWGQGTTVTVSS VL: DIVLTQSPDSLAVSLGERATINCRASKSVSTQGYSYMHWYQQKPGQPPKFLIYLASNLESGVPDRFSGSGSGTDFTLTISSLQAEDVAVYYCQHSREVPYTFGGGTKVEIKR | nM | 1.3 |
| H3_W99H_L2 (antibody, V domains shown, Fc null human IgG1 / human kappa) VH: QVQLVESGGGVVQPGRSLRLSCAASGFTFSDYGMHWVRQAPGKGLEWVAYISSGGTTIYYADTVKGRFTISRDNSKNTLYLQMNSLRAEDTAVYYCARHTNLYAMDYWGQGTTVTVSS VL: DIVLTQSPDSLAVSLGERATINCRASKSVSTSGYSYMHWYQQKPGQPPKFLIYLASNKESGVPDRFSGSGSGTDFTLTISSLQAEDVAVYYCQHSREVPYTFGGGTKVEIKR | nM | 0.472 |
| 51B12_VH_L2 (antibody, V domains shown, Fc null human IgG1 / human kappa) VH: QVQLVESGGGVVQPGRSLRLSCAASGFTFSDYGMHWVRQAPGKGLEWVAYISSGGTTIYYADTVKGRFTISRDNSKNTLYLQMNSLRAEDTAVYYCARWTNLYAMDYWGQGTTVTVSS VL: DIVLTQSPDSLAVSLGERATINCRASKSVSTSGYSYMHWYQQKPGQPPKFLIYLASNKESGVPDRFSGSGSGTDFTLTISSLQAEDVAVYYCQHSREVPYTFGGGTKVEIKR | nM | 1.12 |
| H2_K65P_L2 (antibody, V domains shown, Fc null human IgG1 / human kappa) VH: QVQLVESGGGVVQPGRSLRLSCAASGFTFSDYGMHWVRQAPGKGLEWVAYISSGGTTIYYADTVPGRFTISRDNSKNTLYLQMNSLRAEDTAVYYCARWTNLYAMDYWGQGTTVTVSS VL: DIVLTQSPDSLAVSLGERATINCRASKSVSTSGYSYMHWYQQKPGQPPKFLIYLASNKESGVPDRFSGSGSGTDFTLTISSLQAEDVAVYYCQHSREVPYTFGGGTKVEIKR | nM | 1.13 |
| H2_G66Q_VL-par (antibody, V domains shown, Fc null human IgG1 / human kappa) VH: QVQLVESGGGVVQPGRSLRLSCAASGFTFSDYGMHWVRQAPGKGLEWVAYISSGGTTIYYADTVKQRFTISRDNSKNTLYLQMNSLRAEDTAVYYCARWTNLYAMDYWGQGTTVTVSS VL: DIVLTQSPDSLAVSLGERATINCRASKSVSTSGYSYMHWYQQKPGQPPKFLIYLASNLESGVPDRFSGSGSGTDFTLTISSLQAEDVAVYYCQHSREVPYTFGGGTKVEIKR | nM | 1.08 |
